assay: Absorbance/emission spectra in ethanol; type: physicochemical; details: 0.25 μM solutions in ethanol
PROPERTY: Abs Max (nm)
Express your answer in nm, writing the number without its unit.

Lab note: measured Abs Max of CCCCCCCCCCCCCCCCCCCCCC[N+]1=C(/C=C/C=C/C=C/C=C2/N(CCCCCCCCCCCCCC)c3ccc4ccccc4c3C2(C)C)C(C)(C)c2c1ccc1ccccc21.[I-] [Compound F277A] was 788

Lab note: measured Abs Max of CCCCCCCCCCCCCCCCN1/C(=C\C=C\c2oc3ccc(C(C)(C)C)cc3[n+]2CCCCCCCCCCCCCCCC)Oc2ccc(C(C)(C)C)cc21.[I-] [Compound F304B] was 493

Lab note: measured Abs Max of CCCCCCCCCCCCCCCCCCCCCC[n+]1c(/C=C2\Sc3ccccc3N2CCCCCCCCCCCCCC)sc2ccccc21.[I-] [Compound F305B] was 425

Lab note: measured Abs Max of CCCCCCCCCCCCCCCCCCCCCC[N+]1=C(/C=C/C=C/C=C/C=C2/N(CCCCCCCCCCCCCC)c3ccc([N+](=O)[O-])cc3C2(C)C)C(C)(C)c2ccccc21.[I-] [Compound F319B] was 743

Lab note: measured Abs Max of CCCCCCCCCCCCCCCCCCCCCC[N+]1=C(/C=C/C=C/C=C2/N(CCCCCCCCCCCCCC)c3ccc([N+](=O)[O-])cc3C2(C)C)C(C)(C)c2ccccc21.[I-] [Compound F308B] was 649

Lab note: measured Abs Max of CCCCCCCCCCCCCCCCCCN1/C(=C\C=C\c2oc3ccc(C(C)(C)C)cc3[n+]2CCCCCCCCCCCCCCCCCC)Oc2ccc(C(C)(C)C)cc21.[I-] [Compound F306B] was 492
